System: mouse vas deferens
Test: Assay of opioid activity by mouse vas deferens assay (electrically evoked contraction)
Settings: NTI as δ antagonist, 10 nM
Decide by Ke (nM) NTI (10 nM): equal to or exceeding 20 nM means Satisfied, less means Not satisfied.

1) CN(C(=O)/C=C/c1ccoc1)[C@@H]1CC[C@@]2(O)[C@H]3Cc4ccc(O)c5c4[C@@]2(CC[N+]3(C)CC2CC2)[C@H]1O5.[I-] (some centres unmarked) | Not satisfied

Incoming: Can COc1cccc(/C=C/C(=O)N(C)[C@@H]2CC[C@@]3(O)[C@H]4Cc5ccc(O)c6c5[C@@]3(CC[N+]4([O-])CC3CC3)[C@H]2O6)c1 (some centres unmarked) be said to have Ke (nM) NTI (10 nM) at or above 20 nM?
Outgoing: Not satisfied

Incoming: Can COc1cccc(/C=C/C(=O)N(C)[C@@H]2CC[C@@]3(O)[C@H]4Cc5ccc(O)c6c5[C@@]3(CC[N+]4(C)CC3CC3)[C@H]2O6)c1.[I-] (some centres unmarked) be said to have Ke (nM) NTI (10 nM) at or above 20 nM?
Outgoing: Satisfied

Incoming: Can CN(C(=O)C#Cc1ccc(C(F)(F)F)cc1)[C@@H]1CC[C@@]2(O)[C@H]3Cc4ccc(O)c5c4[C@@]2(CC[N+]3([O-])CC2CC2)[C@H]1O5 (some centres unmarked) be said to have Ke (nM) NTI (10 nM) at or above 20 nM?
Outgoing: Not satisfied
